assay-procedure: Equilibrium solubility of the compound at pH 6.8
Type: physicochemical
condition-context: buffer
Class 1: solubility thermodynamic at least 100 µM. Class -1: solubility thermodynamic below 100 µM.

Recorded results for 3 compounds are shown here.
item-smiles	group-label
Cc1c(C(=O)Nc2c(C)n(C)n(-c3ccccc3F)c2=O)noc1-c1ccc(Cl)cc1Cl	-1
Cc1c(C(=O)Nc2c(C)n(C)n(-c3ccccc3F)c2=O)noc1-c1ccc(Cl)cc1F	1
COc1ccc(-c2onc(C(=O)Nc3c(C)n(C)n(-c4ccccc4F)c3=O)c2C)c(C)c1	1

Is the recorded value of solubility thermodynamic equal to or greater than 100 µM for this compound? Cc1c(C(=O)Nc2c(C)n(C)n(C3CCCCC3)c2=O)nnn1-c1ccc(C2CC2)cc1Cl 1

Please tell me: is the compound Cc1c(C(=O)O)noc1-c1ccc(C2CC2)cc1Cl at or over 100 µM in terms of solubility thermodynamic? -1

Kindly determine if solubility thermodynamic recorded for Cc1c(C(=O)Nc2c(C)n(C)n(-c3ccccc3F)c2=O)noc1-c1ccc(Cl)cc1 is above or exactly 100 µM. 1

Has COc1ccc(-c2onc(C(=O)Nc3c(C)n(C)n(-c4ccccc4F)c3=O)c2C)cc1 a recorded solubility thermodynamic greater than or equal to 100 µM? -1

----------
Observed IC50 values for UniProtKB Q9HCE7 are listed in what follows.
# output: bare number, implied unit nM

item-smiles	measurement-unit	IC50
COc1ccc2c(c1)CCCc1c(C(=O)Nc3c(C)n(C)n(-c4ccccc4F)c3=O)noc1-2	nM	200

Param request: IC50 | system UniProtKB Q9HCE7 | item COc1ccc(-c2onc(C(=O)Nc3c(C)n(C)n(-c4ccccc4F)c3=O)c2C)cc1 1000

----------
assay-procedure: AUClast in rat at 3 mg/kg, po
Format: ADME, organism-based
condition-context: in vivo
In this section, each of the molecules is paired with its reported AUClast.
Please state the value followed by its unit.

Known results for molecules:
item-smiles	AUClast
Cc1c(C(=O)O)noc1-c1ccc(C2CC2)cc1Cl	2.78 µM·h
Cc1c(C(=O)Nc2c(C)n(C)n(C3CCCCC3)c2=O)nnn1-c1ccc(C2CC2)cc1Cl	7.38 µM·h

Consider now this further molecule.
Annotate the molecule Cc1c(C(=O)Nc2c(C)n(C)n(-c3ccccc3F)c2=O)noc1-c1ccc(C2CC2)cc1Cl with its measured AUClast. 11.6 µM·h

----------
target-desc: E3 ubiquitin-protein ligase SMURF2 (Homo sapiens, UniProt Q9HAU4)
Sequence (Q9HAU4 whole entry): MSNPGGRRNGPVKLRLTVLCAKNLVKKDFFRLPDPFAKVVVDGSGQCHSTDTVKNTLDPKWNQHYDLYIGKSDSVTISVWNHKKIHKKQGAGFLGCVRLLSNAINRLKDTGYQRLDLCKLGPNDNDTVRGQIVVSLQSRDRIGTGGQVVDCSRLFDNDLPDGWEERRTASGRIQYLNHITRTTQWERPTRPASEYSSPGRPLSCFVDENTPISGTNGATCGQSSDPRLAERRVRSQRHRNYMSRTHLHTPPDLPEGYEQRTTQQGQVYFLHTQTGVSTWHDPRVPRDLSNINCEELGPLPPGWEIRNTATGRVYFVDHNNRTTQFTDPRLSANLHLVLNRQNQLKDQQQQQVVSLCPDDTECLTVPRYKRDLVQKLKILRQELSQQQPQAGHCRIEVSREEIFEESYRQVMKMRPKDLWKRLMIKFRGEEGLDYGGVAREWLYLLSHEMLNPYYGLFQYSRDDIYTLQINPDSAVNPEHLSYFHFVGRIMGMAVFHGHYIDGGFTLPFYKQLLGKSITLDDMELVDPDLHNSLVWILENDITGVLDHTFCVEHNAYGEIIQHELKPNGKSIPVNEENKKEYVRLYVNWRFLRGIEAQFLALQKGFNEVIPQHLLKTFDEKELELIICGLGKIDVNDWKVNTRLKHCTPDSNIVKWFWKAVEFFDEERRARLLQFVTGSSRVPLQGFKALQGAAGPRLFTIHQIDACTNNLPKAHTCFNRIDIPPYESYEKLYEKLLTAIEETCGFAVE
measured-quantity: pIC50
Quick note: pIC50 means taking -log10 of the concentration in moles per liter.

Recall the reported pIC50 of Cc1c(C(=O)O)noc1-c1ccc(C2CC2)cc1Cl when tested on E3 ubiquitin-protein ligase SMURF2 (Homo sapiens, UniProt Q9HAU4). 5.54

----------
target-desc: E3 ubiquitin-protein ligase SMURF1 (Homo sapiens, UniProt Q9HCE7)
Sequence (Q9HCE7 whole entry): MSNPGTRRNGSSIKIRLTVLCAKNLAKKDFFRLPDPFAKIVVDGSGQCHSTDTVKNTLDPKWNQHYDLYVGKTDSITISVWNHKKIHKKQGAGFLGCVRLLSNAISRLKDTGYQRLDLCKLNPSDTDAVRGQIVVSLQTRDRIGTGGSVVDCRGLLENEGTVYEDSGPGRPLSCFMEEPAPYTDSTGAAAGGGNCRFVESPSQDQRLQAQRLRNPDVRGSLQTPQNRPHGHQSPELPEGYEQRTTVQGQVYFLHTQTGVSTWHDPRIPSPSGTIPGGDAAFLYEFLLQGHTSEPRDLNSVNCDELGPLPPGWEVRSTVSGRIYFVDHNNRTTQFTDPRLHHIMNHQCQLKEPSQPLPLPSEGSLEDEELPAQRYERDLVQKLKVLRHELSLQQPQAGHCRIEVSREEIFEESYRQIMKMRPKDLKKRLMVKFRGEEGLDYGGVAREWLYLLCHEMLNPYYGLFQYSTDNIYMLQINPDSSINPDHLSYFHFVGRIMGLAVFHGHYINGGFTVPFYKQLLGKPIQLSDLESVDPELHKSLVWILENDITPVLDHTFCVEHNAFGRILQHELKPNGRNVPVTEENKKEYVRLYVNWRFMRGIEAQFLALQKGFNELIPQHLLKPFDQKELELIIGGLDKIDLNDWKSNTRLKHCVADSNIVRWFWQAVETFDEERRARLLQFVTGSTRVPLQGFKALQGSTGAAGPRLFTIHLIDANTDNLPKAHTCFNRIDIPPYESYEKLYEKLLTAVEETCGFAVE
assay-procedure: Stabilization of SMURF1 (unknown origin) assessed as decrease in auto-ubiquitination by measuring increase in protein level by cell-based assay
EC50 listing for selected compounds.
Number in nM, nothing else.

item-smiles	EC50 / nM
COc1ccc2c(c1)CCCc1c(C(=O)Nc3c(C)n(C)n(-c4ccccc4F)c3=O)noc1-2	600

For E3 ubiquitin-protein ligase SMURF1 (Homo sapiens, UniProt Q9HCE7), give the measured EC50 of the entry Cc1c(C(=O)Nc2c(C)n(C)n(-c3ccccc3F)c2=O)noc1-c1cc(Cl)ccc1Cl 2500

Answer with EC50 of COc1ccc2c(c1)CCc1c(C(=O)Nc3c(C)n(C)n(-c4ccccc4)c3=O)noc1-2 measured for E3 ubiquitin-protein ligase SMURF1 (Homo sapiens, UniProt Q9HCE7). 4660

Give EC50; test system E3 ubiquitin-protein ligase SMURF1 (Homo sapiens, UniProt Q9HCE7); compound Cc1c(C(=O)O)noc1-c1ccc(C2CC2)cc1Cl 40

Print E3 ubiquitin-protein ligase SMURF1 (Homo sapiens, UniProt Q9HCE7) EC50 for COc1ccc(-c2onc(C(=O)Nc3c(C)n(C)n(-c4ccccc4F)c3=O)c2C)cc1 . 1600

Provide the reported EC50 (system: E3 ubiquitin-protein ligase SMURF1 (Homo sapiens, UniProt Q9HCE7)) for Cc1c(C(=O)Nc2c(C)n(C)n(-c3ccccc3F)c2=O)noc1-c1ccc(Cl)cc1 580

Name the recorded EC50 of COc1ccc(-c2onc(C(=O)Nc3c(C)n(C)n(-c4ccccc4F)c3=O)c2C)c(C)c1 , assay system E3 ubiquitin-protein ligase SMURF1 (Homo sapiens, UniProt Q9HCE7). 250

Under E3 ubiquitin-protein ligase SMURF1 (Homo sapiens, UniProt Q9HCE7), report EC50 for COc1ccc2c(c1)CCCc1c(C(=O)Nc3c(C)n(C)n(-c4ccccc4)c3=O)noc1-2 1100

----------
In this section we review reported pEC50 values for a set of molecules.
target-desc: UniProtKB Q9HCE7
assay-procedure: Stabilization of SMURF1 (unknown origin) assessed as decrease in auto-ubiquitination by measuring increase in protein level by cell-based assay
Scale note: pEC50 = -log10(concentration in M).

item-smiles	reported-value
Cc1c(C(=O)Nc2c(C)n(C)n(-c3ccccc3F)c2=O)noc1-c1ccc(Cl)cc1F	5.96
Cc1c(C(=O)Nc2c(C)n(C)n(-c3ccccc3F)c2=O)noc1-c1ccc(C2CC2)cc1Cl	6.64
Cc1c(C(=O)Nc2c(C)n(C)n(-c3ccccc3F)c2=O)noc1-c1ccc(Cl)cc1Cl	6.39

Consider now this further molecule.
Report pEC50 on UniProtKB Q9HCE7 for this entry: Cc1c(C(=O)Nc2c(C)n(C)n(C3CCCCC3)c2=O)nnn1-c1ccc(C2CC2)cc1Cl 6.50

Just for reference, ChEMBL document CHEMBL5338826 is where these values come from.
